# Assayed system: meprin α (Homo sapiens)
# Sequence (Q16819 66-593 limits assumed): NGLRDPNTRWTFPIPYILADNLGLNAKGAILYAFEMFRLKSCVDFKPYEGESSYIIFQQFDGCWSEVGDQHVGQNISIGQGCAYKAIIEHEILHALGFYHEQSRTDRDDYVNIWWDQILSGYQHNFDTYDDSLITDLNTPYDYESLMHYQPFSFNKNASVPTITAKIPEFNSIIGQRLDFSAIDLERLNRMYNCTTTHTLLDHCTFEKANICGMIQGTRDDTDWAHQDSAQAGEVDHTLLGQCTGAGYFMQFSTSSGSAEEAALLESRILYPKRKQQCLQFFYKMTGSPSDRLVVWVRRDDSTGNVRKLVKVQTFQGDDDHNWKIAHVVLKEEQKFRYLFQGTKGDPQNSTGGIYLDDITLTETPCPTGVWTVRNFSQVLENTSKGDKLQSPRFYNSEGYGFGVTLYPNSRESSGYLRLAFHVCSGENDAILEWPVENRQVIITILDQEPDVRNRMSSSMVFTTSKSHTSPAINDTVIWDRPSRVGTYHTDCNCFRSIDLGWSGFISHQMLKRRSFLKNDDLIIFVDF
# Assay info: Meprin α assay, fluorogenic substrate (Mca)-YVADAPK-(K-ε-Dnp), 384 and 1536 well plate formats
# Format: biochemical
# Recorded conditions: 1536 wpf; enzyme 0.65nM; time 30 min; read-out: Actinonin IC50
Measurement type: IC50 (nM)
Hi! Could you send only the number? It should be in nM, unit omitted.

# compound `CCCCC[C@H](CC(=O)NO)C(=O)N[C@H](C(=O)N1CCC[C@H]1CO)C(C)C` ; its IC50 = 4.11

###

# Assayed system: meprin β (Homo sapiens, UniProt Q16820)
# Sequence (Q16820 62-594 limits assumed): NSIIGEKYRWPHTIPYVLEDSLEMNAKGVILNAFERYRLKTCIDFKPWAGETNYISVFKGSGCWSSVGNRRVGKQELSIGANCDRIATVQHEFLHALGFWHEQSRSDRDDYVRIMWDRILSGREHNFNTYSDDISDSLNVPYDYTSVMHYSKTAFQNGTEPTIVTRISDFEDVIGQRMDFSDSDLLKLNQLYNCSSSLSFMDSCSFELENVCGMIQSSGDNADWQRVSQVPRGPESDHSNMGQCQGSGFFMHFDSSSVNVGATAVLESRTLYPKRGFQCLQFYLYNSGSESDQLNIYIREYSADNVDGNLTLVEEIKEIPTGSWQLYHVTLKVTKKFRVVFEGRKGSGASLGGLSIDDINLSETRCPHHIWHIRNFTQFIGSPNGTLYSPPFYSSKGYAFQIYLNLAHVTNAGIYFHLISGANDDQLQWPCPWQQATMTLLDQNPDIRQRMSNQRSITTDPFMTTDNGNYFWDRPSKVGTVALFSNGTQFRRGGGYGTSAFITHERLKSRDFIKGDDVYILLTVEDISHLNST
# Assay info: Meprin β assay, fluorogenic substrate (Mca)-EDEDED-(K-ε-Dnp), 384 and 1536 well plate formats
# Assay type: biochemical
# Recorded conditions: Meprin β 384 wpf; read-out: IC50
The entries below come with measured IC50 values attached.
Hi! Could you send only the number? It should be in µM, unit omitted.

INSERT INTO measurements (compound, assayed_system, value_observed) VALUES
  ('O=C(Nc1cc(C(=O)Nc2ccc(S(=O)(=O)O)cc2S(=O)(=O)O)cc(C(=O)Nc2ccc(S(=O)(=O)O)cc2S(=O)(=O)O)c1)Nc1cc(C(=O)Nc2ccc(S(=O)(=O)O)cc2S(=O)(=O)O)cc(C(=O)Nc2ccc(S(=O)(=O)O)cc2S(=O)(=O)O)c1 [NFF449]', 'meprin β (Homo sapiens, UniProt Q16820)', 0.053);

# evaluate next
# compound CCCCC[C@H](CC(=O)NO)C(=O)N[C@H](C(=O)N1CCC[C@H]1CO)C(C)C [Actinonin, actinonin] ; its IC50 = 22
